Values from ChEMBL document CHEMBL3351364

assay: Oral bioavailability in beagle dog at 2 mg/kg; format: ADME, organism-based, Canis lupus familiaris; conditions: in vivo
quantity: bioavailability (%)
Answers are plain numbers, in %.

Recorded result, `COC(=O)N[C@@H](C(=O)N1CCC[C@H]1c1ncc(-c2ccc3c(c2)O[C@@H](c2ccccc2)n2c-3cc3cc(-c4cnc([C@@H]5CCCN5C(=O)[C@H](NC(=O)OC)C(C)C)[nH]4)ccc32)[nH]1)C(C)C` , bioavailability: 35

* * *

assay: Oral bioavailability in Sprague-Dawley rat at 11.2 mg/kg; format: ADME, organism-based; conditions: in vivo
quantity: bioavailability (%)
Answers are plain numbers, in %.

Recorded result, COC(=O)N[C@H](C(=O)N1CCCC1c1ncc(C#CC#Cc2ccc(-c3cnc(C4CCCN4C(=O)[C@@H](NC(=O)OC)C(C)C)[nH]3)cc2)[nH]1)C(C)C.Cl (single isomer, unassigned; 13a) , bioavailability: 65
